Value source: ChEMBL document CHEMBL1137401

List of Ki tested on Sodium-dependent serotonin transporter (Rattus norvegicus, UniProt P31652).
Sequence (P31652 whole entry): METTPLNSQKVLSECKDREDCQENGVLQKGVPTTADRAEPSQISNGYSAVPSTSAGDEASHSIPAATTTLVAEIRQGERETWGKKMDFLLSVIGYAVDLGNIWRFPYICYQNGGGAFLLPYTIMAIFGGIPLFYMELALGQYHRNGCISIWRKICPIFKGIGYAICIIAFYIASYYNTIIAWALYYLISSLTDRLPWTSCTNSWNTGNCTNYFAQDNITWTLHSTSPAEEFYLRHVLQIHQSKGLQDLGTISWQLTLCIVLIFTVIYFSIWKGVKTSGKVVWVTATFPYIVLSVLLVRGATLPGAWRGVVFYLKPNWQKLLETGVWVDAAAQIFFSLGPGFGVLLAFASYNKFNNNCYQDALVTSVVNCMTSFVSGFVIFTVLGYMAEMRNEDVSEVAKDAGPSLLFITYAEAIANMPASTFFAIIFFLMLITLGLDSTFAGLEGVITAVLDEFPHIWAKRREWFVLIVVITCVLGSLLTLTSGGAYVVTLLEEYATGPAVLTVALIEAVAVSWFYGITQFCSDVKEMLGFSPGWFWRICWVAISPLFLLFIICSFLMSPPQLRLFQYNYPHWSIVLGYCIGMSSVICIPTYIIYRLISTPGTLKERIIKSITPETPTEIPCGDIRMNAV
Report the value in µM with no unit label.

Molecule | Ki (µM)
COC(=O)[C@@H]1C2CCC(C[C@@H]1OC(c1ccc(Cl)cc1)c1ccc(Cl)cc1)N2C (stereo partly drawn) | 0.528
CN1C2CCC1[C@@H](COC(=O)CCCc1ccc([N+](=O)[O-])cc1)[C@@H](OC(c1ccc(F)cc1)c1ccc(F)cc1)C2 (stereo partly drawn) | 3.78

Sodium-dependent serotonin transporter (Rattus norvegicus, UniProt P31652) Ki of CCOC(=O)[C@@H]1C2CCC(C[C@@H]1OC(c1ccc(Cl)cc1)c1ccc(Cl)cc1)N2C (stereo partly drawn) is 1.56

----------
This listing pairs compounds with measured Ki.
# System name: Muscarinic acetylcholine receptor M1 (Rattus norvegicus, UniProt P08482)
# Sequence (P08482 whole entry): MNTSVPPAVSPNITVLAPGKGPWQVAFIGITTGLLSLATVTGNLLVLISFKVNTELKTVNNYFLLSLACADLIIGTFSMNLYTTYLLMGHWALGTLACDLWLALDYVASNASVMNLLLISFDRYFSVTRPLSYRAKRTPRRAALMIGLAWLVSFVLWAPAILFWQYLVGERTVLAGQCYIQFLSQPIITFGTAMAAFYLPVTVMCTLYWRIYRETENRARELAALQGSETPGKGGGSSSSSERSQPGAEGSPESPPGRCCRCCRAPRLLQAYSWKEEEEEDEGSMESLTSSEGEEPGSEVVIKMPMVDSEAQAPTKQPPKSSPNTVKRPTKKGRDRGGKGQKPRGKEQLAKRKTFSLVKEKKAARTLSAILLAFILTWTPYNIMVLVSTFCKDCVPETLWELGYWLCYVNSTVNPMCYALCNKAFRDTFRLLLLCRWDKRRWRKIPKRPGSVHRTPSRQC
API: value field is a number in nM; no unit string.

Known Ki results, listed for orientation:
Compound | System name | Experimental readout | Numeric result
CCOC(=O)[C@@H]1C2CCC(C[C@@H]1OC(c1ccc(Cl)cc1)c1ccc(Cl)cc1)N2C (stereo partly drawn) | Muscarinic acetylcholine receptor M1 (Rattus norvegicus, UniProt P08482) | Ki | 3060
CN1C2CCC1[C@@H](COC(=O)CCCc1ccc([N+](=O)[O-])cc1)[C@@H](OC(c1ccc(F)cc1)c1ccc(F)cc1)C2 (stereo partly drawn) | Muscarinic acetylcholine receptor M1 (Rattus norvegicus, UniProt P08482) | Ki | 708

Lab book: Ki of COC(=O)[C@@H]1C2CCC(C[C@@H]1OC(c1ccc(Cl)cc1)c1ccc(Cl)cc1)N2C (stereo partly drawn) noted as 382

----------
Entries annotated with measured pIC50
# System name: UniProt P23977
# Sequence (P23977 whole entry): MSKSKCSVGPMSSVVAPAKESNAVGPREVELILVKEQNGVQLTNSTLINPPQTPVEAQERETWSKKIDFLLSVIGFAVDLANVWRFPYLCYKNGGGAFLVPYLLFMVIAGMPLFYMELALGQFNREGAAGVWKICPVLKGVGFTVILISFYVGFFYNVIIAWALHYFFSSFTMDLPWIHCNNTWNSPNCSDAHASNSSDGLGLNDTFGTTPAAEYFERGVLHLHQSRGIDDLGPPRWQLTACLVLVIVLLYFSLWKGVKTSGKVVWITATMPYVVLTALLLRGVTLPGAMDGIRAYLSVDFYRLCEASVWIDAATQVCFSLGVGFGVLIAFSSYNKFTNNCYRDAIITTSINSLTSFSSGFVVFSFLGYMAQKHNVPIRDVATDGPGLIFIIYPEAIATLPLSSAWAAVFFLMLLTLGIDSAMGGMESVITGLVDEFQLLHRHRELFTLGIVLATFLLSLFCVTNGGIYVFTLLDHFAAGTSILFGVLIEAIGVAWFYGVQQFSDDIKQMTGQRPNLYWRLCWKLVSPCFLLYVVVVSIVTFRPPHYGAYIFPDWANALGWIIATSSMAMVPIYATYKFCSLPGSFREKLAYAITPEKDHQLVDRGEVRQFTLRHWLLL
# Method summary: Inhibition of [3H]dopamine uptake at DAT in Sprague-Dawley rat brain
Reminder that pIC50 is minus the log10 of a molar concentration.

Compound | pIC50
CCOC(=O)[C@@H]1C2CCC(C[C@@H]1OC(c1ccc(Cl)cc1)c1ccc(Cl)cc1)N2C (some centres not stated) | 8.82

Note: attention shifts to another entry.
Item: COC(=O)[C@@H]1C2CCC(C[C@@H]1OC(c1ccc(Cl)cc1)c1ccc(Cl)cc1)N2C (some centres not stated) | pIC50: 8.61

----------
UniProtKB P23977: reported Ki for various molecules.

Illustrative cases are given below, each with its answer.
Molecule | Result
CN1C2CCC1[C@@H](CO)[C@@H](OC(c1ccc(F)cc1)c1ccc(F)cc1)C2 (stereo partly drawn) | 0.0034 µM
COC(=O)[C@@H]1C2CCC(C[C@@H]1OC(c1ccc(Cl)cc1)c1ccc(Cl)cc1)N2C (stereo partly drawn) | 0.0126 µM

Lab note: next molecule to report on.
Query CCOC(=O)[C@@H]1C2CCC(C[C@@H]1OC(c1ccc(Cl)cc1)c1ccc(Cl)cc1)N2C (stereo partly drawn) yields Ki of 0.0146 µM
